Target: MRGPRX4 (Homo sapiens)
Assay: MRGPR X4 antagonist activity, IP-One Gq HTRF assay in stably transfected HEK cells (versus agonist bilirubin, deoxycholic acid, conjugated bilirubin, urobilin, obeticholic acid or BAR502)
Format: cell-based
Parameters: expressed in transfected cells; host or cells: HEK cells, stably transfected
Conditions: versus 10 μM Bilirubin agonist; HEK cells expressing human MRGPR X4; read-out: MRGPR4 Antagonist Activity
Protocol: HEK cells stably transfected to express human MRGPR X4 were maintained in an incubator at 37° C. with 5% CO2 and grown in DMEM media with 10% fetal bovine serum (FBS) and 1% each of sodium pyruvate, Glutamax, penicillin/streptomycin, and Geneticin. […] Cells were plated in a 384-well assay plate at 20,000 cells per well in 12 μL of Opti-MEM and kept in an incubator overnight. […] The plate was read on a Molecular Devices SpectraMax iD5 plate reader. […]
For each entry below, report its IC50 value.

IC50 recorded for this molecule, "Cc1cc(Cl)ccc1OCc1cccc(C(=O)O)c1" , is 100 to 500 nM

IC50 recorded for this molecule, "O=C(O)c1cccc(Oc2ccc(Cl)cc2Cl)c1" , is 1000 to 2500 nM

IC50 recorded for this molecule, "COc1ccc(OCc2cccc(C(=O)O)c2)c(F)c1F" , is 500 to 1000 nM

IC50 recorded for this molecule, "C#Cc1cc(C(F)(F)F)ccc1OCc1cccc(C(=O)O)c1F" , is 500 to 1000 nM

IC50 recorded for this molecule, "CNC(=O)c1ccc(OCc2cccc(C(=O)O)c2)cc1" , is 1000 to 2500 nM

IC50 recorded for this molecule, "O=C(O)c1cccc(COc2ccc(OC(F)(F)F)cc2Cl)n1" , is < 100 nM

IC50 recorded for this molecule, "COC(=O)c1ccc(COc2ccc(Cl)cc2Cl)s1" , is 1000 to 2500 nM

IC50 recorded for this molecule, "O=C(O)c1ccc(NC(=O)c2cccc(COc3ccc(C(F)(F)F)cc3Cl)c2)cc1" , is 500 to 1000 nM

IC50 recorded for this molecule, "Cc1cc(N2CCCC2)ccc1OCc1cccc(C(=O)O)c1F" , is 500 to 1000 nM

IC50 recorded for this molecule, "O=C(O)c1cccc(COc2ccc3c(c2)CCC3=O)c1" , is > 2500 nM

IC50 recorded for this molecule, "N#Cc1cc(COc2ccc(C(F)(F)F)c(Cl)c2)cc(C(=O)O)c1" , is < 100 nM

IC50 recorded for this molecule, "O=C(O)c1cccc(COc2ccc(C(F)(F)F)cc2C2CC2)c1" , is 500 to 1000 nM

====

For each entry below, report its IC50 value.
Target: MRGPRX4 (Homo sapiens, UniProt Q96LA9)
Sequence (Q96LA9 whole entry): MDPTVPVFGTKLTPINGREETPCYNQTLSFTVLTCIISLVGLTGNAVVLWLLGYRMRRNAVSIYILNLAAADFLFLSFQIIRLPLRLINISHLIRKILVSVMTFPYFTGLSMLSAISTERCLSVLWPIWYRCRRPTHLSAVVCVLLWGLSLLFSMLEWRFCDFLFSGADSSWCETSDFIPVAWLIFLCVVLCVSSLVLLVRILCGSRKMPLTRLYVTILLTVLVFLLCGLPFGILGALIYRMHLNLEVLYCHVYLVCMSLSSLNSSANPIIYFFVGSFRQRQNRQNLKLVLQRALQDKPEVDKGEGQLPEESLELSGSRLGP
Test: MRGPR X4 antagonist activity, IP-One Gq HTRF assay in stably transfected HEK cells (versus agonist bilirubin, deoxycholic acid, conjugated bilirubin, urobilin, obeticholic acid or BAR502)
Type: cell-based
Set-up: expressed in transfected cells; host or cells: HEK cells, stably transfected
Conditions: versus 10 μM Bilirubin agonist; HEK cells expressing human MRGPR X4; read-out: MRGPR4 Antagonist Activity

IC50 recorded for this compound, "CNC(=O)CNC(=O)c1cccc(COc2ccc(C(F)(F)F)cc2Cl)c1" , is 0.5 to 1 µM

IC50 recorded for this compound, "O=C(O)c1cccc(COc2ccc(C(F)(F)F)cc2)c1" , is 0.1 to 0.5 µM

IC50 recorded for this compound, "COc1cc(COc2ccc(Cl)cc2Cl)cc(C(=O)O)c1" , is < 0.1 µM

IC50 recorded for this compound, "O=C(O)c1cccc(CNc2ccc(C(F)(F)F)cc2Cl)n1" , is < 0.1 µM

IC50 recorded for this compound, "O=C(O)c1cccc(COc2ccc(Cl)cc2Cl)c1Cl" , is < 0.1 µM

IC50 recorded for this compound, "N#Cc1ccc(COc2ccc(Cl)cc2Cl)cc1C(=O)O" , is 1 to 2.5 µM

IC50 recorded for this compound, "CCCc1cc(COc2ccc(C(F)(F)F)cc2Cl)nc(C(=O)O)c1" , is < 0.1 µM

IC50 recorded for this compound, "N#Cc1cc(OCc2cccc(C(=O)O)c2)ccc1Cl" , is 1 to 2.5 µM

IC50 recorded for this compound, "O=C(O)c1cc(Br)cc(COc2ccc(C(F)(F)F)cc2Cl)c1" , is < 0.1 µM

IC50 recorded for this compound, "O=C(O)c1cccc(COc2ccc(-n3cccc3)cc2)c1" , is 0.1 to 0.5 µM
